reported_property: melting point

compound="COc1ccc2c(c1)OCC(c1ccc(F)cc1)C2c1ccc(O)cc1 (stereo not given)" reported_property="melting point" value="164 to 165 °C"
compound=O=C(O)c1nc2ccc(OCCCN3CCC(OC(c4ccccc4)c4ccccc4)CC3)nn2n1 reported_property="melting point" value="173 to 177 °C"
compound=CC#CCOc1ccc(/C=C/C(=O)Nc2ccccc2C(=O)O)cc1OC reported_property="melting point" value="194 to 195 °C"
compound=Brc1nc2ncsc2nc1Br reported_property="melting point" value="142 to 144 °C"
compound=COc1ccc(-c2nccc3c(CC#N)cccc23)cc1 reported_property="melting point" value="130 to 132 °C"
compound=ON=C(c1ccccc1)c1cc(F)cc(F)c1 reported_property="melting point" value="91 to 93 °C"
compound="Cc1cc(C2=C(/C=C/[C@H]3C[C@H](O)CC(=O)O3)C(C)(C)CC3(C2)SCCCS3)ccc1F (relative stereo)" reported_property="melting point" value="136 to 138 °C"
compound="CN(C)c1ccc(C(O)C#Cc2ccc(C(=O)O)cc2)cc1C(C)(C)C (stereo not given)" reported_property="melting point" value="139 °C"
compound=O=C(O)COc1cccc2c1CCc1sc(Sc3ccc([N+](=O)[O-])cc3[N+](=O)[O-])nc1-2 reported_property="melting point" value="223 to 226 °C"
compound="COc1ccc2c(c1)CCC1C2CCC2(C)C(=O)C(C)CC12 (stereo not given)" reported_property="melting point" value="115 to 116 °C"
compound=COc1cc(OC)c2c(=O)[nH]c(-c3cc(C)c(OCCCCN4CCCC4)c(C)c3)nc2c1 reported_property="melting point" value="180 to 181 °C"
compound=CCc1[nH]n(C2CCCC2)c2nc(Cc3ccc(OC)c(OC)c3)nc(=O)c1-2 reported_property="melting point" value="148 to 149 °C"
compound="COCn1ccnc1C(O)(c1ccccc1)c1cccc(C(F)(F)F)c1 (stereo not given)" reported_property="melting point" value="152 to 154 °C"
compound=O=C1c2ccccc2C(=O)N1CCc1ccc(C=Cc2ccccc2)cc1 reported_property="melting point" value="212 to 215 °C"
compound=COc1ccc(CNc2nc(Cl)cc(Cn3c(C(=O)c4cc(C)cc(C#N)c4)c(C(C)C)c(=O)[nH]c3=O)n2)cc1 reported_property="melting point" value="337 to 338 °C"
compound="NC(CC(=O)O)c1ccc(OC(F)(F)F)cc1 (stereo not given)" reported_property="melting point" value="258 to 260 °C"
compound=COC(=O)c1cc(F)ccc1Nc1ccnc2cc(Cl)ccc12 reported_property="melting point" value="180 °C"
compound=COc1ccc(C(=O)Nc2ccc(Cl)c(Cl)c2)cc1NC(=S)Nc1cc(Cl)cc(Cl)c1 reported_property="melting point" value="189 to 191 °C"
compound=Nc1cc(Cl)nc(SCc2cccc(O)c2)n1 reported_property="melting point" value="148 °C"
compound="COc1ccccc1-c1cc(Cl)cc2c1NC(CN)CO2 (stereo not given)" reported_property="melting point" value="100 °C"

----------
// reported melting point per item
reported_property: melting point

compound=COCc1nc2cccnc2n1Cc1ccc(C(=O)N(C(C)C)C2CCCCC2)cc1OC value="126 °C"
compound=Oc1ccc2oc(-c3ccc(O)c4ccccc34)nc2c1 value="182 to 184 °C"
compound="Nc1cc(OCC(O)CO)ccc1[N+](=O)[O-] (stereo unspecified)" value="139 °C"
compound=O=C1OC(=Cc2ccc(Cl)c([N+](=O)[O-])c2)c2ccccc21 value="198 to 204 °C"
compound=O=[N+]([O-])c1ccc(S(=O)(=O)CCO)cc1O value="140 to 142 °C"
compound=N#Cc1ccc2c(c1)-c1cc(C#N)ccc1OCCO2 value="195 to 196 °C"
compound="CS(=O)c1[nH]cc(Cc2ccccc2)c1[N+](=O)[O-] (stereo unspecified)" value="189 to 190 °C"
compound=N#Cc1c(CNC(=O)c2ccc(-n3cccc3)cc2)nn(-c2ccc(Cl)cc2Cl)c1-c1ccc(Cl)cc1 value="121 °C"
compound=CCn1nc(C(C)C)c2c1C(=NC#N)NCC(c1ccccc1)=N2 value="222 °C"
compound=CCCc1c(Br)sc2[nH]c(=O)c(=O)[nH]c12 value="269 to 271 °C"
compound="CC1NC(=O)NN=C1c1ccc(N)cc1 (stereo unspecified)" value="248 to 250 °C"
compound=CN(C)C(=O)C(=O)c1c(Cl)n(C)c2ccc(Cl)cc12 value="205 to 206 °C"
compound=CN(C)CCCOc1cccc(N(C(=O)c2ccccc2)c2ccccc2)c1 value="77 to 81 °C"
compound="N#Cc1ccc(CCC(O)C2CC2)cc1 (stereo unspecified)" value="70 to 71 °C"
compound=O=C(O)CCCc1cccc(OCc2cn(-c3ccc(C(F)(F)F)cn3)nc2C2CCCCC2)c1 value="128 to 129 °C"
compound=CC1(C)Cc2cccc(Oc3c(Cl)cc(N)cc3Cl)c2O1 value="140 to 145 °C"
compound="O=C1Nc2ccccc2C(c2ccc(Cl)c(Cl)c2)CC1Br (stereo unspecified)" value="183 to 188 °C"
compound="COc1ccc2[nH]c3c(c2c1)CCN(C(C)=O)C3C (stereo unspecified)" value="198 to 200 °C"
compound="Cc1nc(N2CCC(Cc3ccc(F)cc3)C2=O)sc1C(=O)NCc1ccc(F)cc1 (stereo unspecified)" value="196 to 197 °C"
compound="c1cnc2[nH]cc(C3CN4CCC3CC4)c2c1 (stereo unspecified)" value="185 °C"
compound=Cc1cc2ccc(/C=C/C(=O)OCc3ccccc3)cc2[nH]1 value="164 to 165 °C"
compound=N#Cc1cnn2c1N(C(=O)CN1CCN(Cc3ccccc3C(F)(F)F)CC1)CC=C2c1cccc(C(F)(F)F)c1 value="169 to 171 °C"
compound=C=CC(=O)NCCOC(C)(C)OCCNC(=O)C=C value="94 to 95 °C"
compound=Cn1c(C=NNC(N)=S)cnc1[N+](=O)[O-] value="282 to 287 °C"
compound=O=C(C(=O)N(CC(F)(F)F)S(=O)(=O)C(F)(F)F)N(CC(F)(F)F)S(=O)(=O)C(F)(F)F value="43 to 45 °C"
compound=C[C@@H](C[C@H](N)C(=O)O)C(=O)O value="163 to 164 °C"
compound=CN1CCC(N(CCO)S(=O)(=O)c2ccc(Nc3nccc(Nc4ccc(F)cc4)n3)cc2)CC1 value="125 to 135 °C"
compound=CCOC(=O)c1cn(-c2cc(N)c(F)cn2)c2c(Cl)c(F)c(F)cc2c1=O value="140 to 148 °C"
compound=CN(CCOc1ccc(Cn2cc(CCC(=O)O)c(-c3ccccc3)n2)cc1)c1ccccn1 value="110 to 111 °C"
compound=Nc1c(Cl)ccc(Br)c1F value="61 to 62 °C"
compound=CC(C)(C)OC(=O)COc1cc2cc(C(C)(C)O)sc2c(Cl)c1Cl value="137 to 138 °C"
compound=COc1cc(C(C)C)c2c(c1)S(=O)(=O)N(COC(=O)c1c(C)cc(C)cc1C)C2=O value="137 to 138 °C"
compound="C=CCNc1nc(C2C(=O)Nc3ccc(Br)cc32)c2cn(CCC)nc2n1 (stereo unspecified)" value="322 to 326 °C"
compound=COc1ccc(-c2ocnc2-c2cc(OC)c(Cl)c(OC)c2)cc1N value="146 to 148 °C"
compound=NC1=Nc2ccc(OC(F)(F)F)cc2CS1 value="115 to 118 °C"
compound=CC(=O)Oc1ccc(S(=O)(=O)ON=C(C#N)c2cccs2)cc1 value="114 to 115 °C"
compound="CC(O)(c1ccccc1)c1cncs1 (stereo unspecified)" value="86 to 87 °C"
compound=COc1ccc(C2(O)CCC3(CC2)OCCO3)c2c1OCCO2 value="94 to 96 °C"
compound=COc1ccc(-c2ccnc3c(C(=O)c4cccs4)cnn23)cc1NC(=O)c1ccccc1 value="201 to 203 °C"
compound="O=C(O)[C@@H]1Cc2cc(Cl)cc(Cl)c2S[C@H]1C(F)(F)F (relative stereo)" value="165 to 170 °C"
compound=COC(=O)c1ccc(C)c(-n2c(C)cc(OCc3ccc(F)cc3CNC(=O)Nc3cc(C(C)(C)C)nn3-c3ccc(O)c(Cl)c3)c(Cl)c2=O)c1 value="197 to 200 °C"

----------
// reported melting point per item
reported_property: melting point

compound=CCOCc1nc2c(N)nc(C)c(C)c2n1CCOCCCc1nccs1 value="91 to 92 °C"
compound=CC1(C)Oc2ccc(C(=O)CN=[N+]=[N-])cc2S1 value="52 to 53 °C"
compound="CCCNC(=O)c1cccc(C2(c3ccc(OC(F)F)cc3)N=C(N)N(C)C2=O)c1 (stereo not given)" value="93 to 96 °C"
compound=O=C(Nc1ccc2ccc(Cl)nc2n1)c1ccc(Br)o1 value="285 °C"
compound=CCOc1ccc2c(c1)CCc1c(C#N)cccc1S2 value="124 to 126 °C"
compound=CCCCCCCOc1ccc(-c2ccc(N=Nc3ccc(N=Nc4ccc(N(C)C)cc4)cc3)cc2)cc1 value="201 to 203 °C"
compound=CS(=O)(=O)Nc1cc(NC(=O)CC(=O)C(F)(F)F)c(F)cc1C#N value="186 to 191 °C"
compound="O=C(O)c1cc(S(=O)Cc2ccccc2)c(Cl)cc1Cl (stereo not given)" value="192 °C"
compound=Cc1ccccc1Nc1nc(O)c2sccc2n1 value="243 to 245 °C"
compound=Cc1cccc(-c2sc(N)nc2-c2ccnc(-c3ccc(OCC(=O)N4CCOCC4)cc3)c2)n1 value="172 °C"

Reference source: a melting point compilation (Tetko et al.; mined from patent text by program, amines drawn as free bases though some values may be those of a salt)
